The measured values listed here are drawn from ChEMBL document CHEMBL2384949.

Assay: Cytotoxicity against human HepG2 cells assessed as cell viability at 100 uM after 48 hrs by MTT assay
Assay type: cell-based
Details: read-out: Activity
Measured property: viability at 48 h, 100 µM

Batch request: viability at 48 h, 100 µM per item, same order as input.
1. COc1ccc(/C=N/NC(=O)Cn2c([N+](=O)[O-])cnc2C)cc1
2. CCc1ccc(/C=N/NC(=O)Cn2c([N+](=O)[O-])cnc2C)cc1
3. Cc1ncc([N+](=O)[O-])n1CCO

**A:**
1. ≥ 68%
2. ≥ 68%
3. ≥ 68%

Your task in this section: give viability at 48 h, 100 µM for each listed record.
1. CCOc1ccc(/C=N/NC(=O)Cn2c([N+](=O)[O-])cnc2C)cc1
2. Cc1ccc(/C=N/NC(=O)Cn2c([N+](=O)[O-])cnc2C)cc1

**A:**
["≥ 68%", "≥ 68%"]

###

Please go through the items and note down their IC50.
Test system: Entamoeba histolytica
Assay: Antiamoebic activity against Entamoeba histolytica HM-1:IMSS trophozoites after 72 hrs by microdilution method
Format: functional, organism-based
Conditions: read-out: pIC50 (converted)

Worked cases, answers included:
>>> result("CC(=O)N1N=C(Cn2c([N+](=O)[O-])cnc2C)OC1c1ccc(C(C)C)cc1 (stereo not given)")
"4.89 µM"
>>> result("CCc1ccc(/C=N/NC(=O)Cn2c([N+](=O)[O-])cnc2C)cc1")
"1.32 µM"
>>> result("CCOc1ccc(C2OC(Cn3c([N+](=O)[O-])cnc3C)=NN2C(C)=O)cc1 (stereo not given)")
"2.32 µM"
>>> result("COc1ccc(/C=N/NC(=O)Cn2c([N+](=O)[O-])cnc2C)cc1")
"0.811 µM"

Now consider a different molecule.
**Q:** // query IC50 value for entry CC(=O)N1N=C(Cn2c([N+](=O)[O-])cnc2C)OC1c1cc(C)ccc1C (stereo not given)
**A:** 4.39 µM

###

Test system: HepG2
Assay: Cytotoxicity against human HepG2 cells after 48 hrs by MTT assay
Format: cell-based
Conditions: Homo sapiens, HepG2, 48 h
pIC50: −log10 of the molar value.
Measured property: pIC50

A selection of reference data follows.
>>> result("CCOc1ccc(/C=N/NC(=O)Cn2c([N+](=O)[O-])cnc2C)cc1")
"< 4.00"
>>> result("CCc1ccc(/C=N/NC(=O)Cn2c([N+](=O)[O-])cnc2C)cc1")
"< 4.00"
>>> result("Cc1ccc(/C=N/NC(=O)Cn2c([N+](=O)[O-])cnc2C)cc1")
"< 4.00"
>>> result("COc1ccc(/C=N/NC(=O)Cn2c([N+](=O)[O-])cnc2C)cc1")
"< 4.00"

Now, please, on to the next compound.
**Q:** Entry under review: Cc1ncc([N+](=O)[O-])n1CCO [METRONIDAZOLE] . Reported pIC50?
**A:** < 4.00

###

Experiment: Safety index, ratio of IC50 for human HepG2 cells to IC50 for Entamoeba histolytica HM-1:IMSS trophozoites
Settings: hepg2
Measured property: selectivity ratio

**Q:** What does the data say about its selectivity ratio? Entry: Cc1ncc([N+](=O)[O-])n1CCO
**A:** > 55.5

###

Assay: Safety index, ratio of IC50 for human HepG2 cells to IC50 for Entamoeba histolytica HM-1:IMSS trophozoites
Settings: HepG2 cells
Kindly state selectivity ratio for each of the entries shown.

Use the examples below as a reference point.
>>> result("Cc1ccc(/C=N/NC(=O)Cn2c([N+](=O)[O-])cnc2C)cc1")
"> 104"
>>> result("CCOc1ccc(/C=N/NC(=O)Cn2c([N+](=O)[O-])cnc2C)cc1")
"> 60.6"
>>> result("COc1ccc(/C=N/NC(=O)Cn2c([N+](=O)[O-])cnc2C)cc1")
"> 123"

**Q:** What value of measured selectivity ratio is listed for CCc1ccc(/C=N/NC(=O)Cn2c([N+](=O)[O-])cnc2C)cc1 ?
**A:** > 75.8

###

Test system: Entamoeba histolytica
Assay: Antiamoebic activity against Entamoeba histolytica HM-1:IMSS trophozoites after 72 hrs by microdilution method
Format: functional, organism-based
Conditions: read-out: pIC50 (converted)
Assign classes using reported IC50 values and the ranges lo (below 3 µM), med (3 µM to below 4 µM), hi (4 µM or more), please.

Solved entries (count: 6):
>>> category("Cc1ncc([N+](=O)[O-])n1CC(=O)N/N=C/c1ccccc1")
"hi"
>>> category("Cc1ncc([N+](=O)[O-])n1CC(=O)N/N=C/c1ccc(C(C)C)cc1")
"med"
>>> category("CC(=O)N1N=C(Cn2c([N+](=O)[O-])cnc2C)OC1c1cccc(Cl)c1 (centres undefined)")
"hi"
>>> category("CC(=O)N1N=C(Cn2c([N+](=O)[O-])cnc2C)OC1c1ccccc1Cl (centres undefined)")
"hi"
>>> category("Cc1ncc([N+](=O)[O-])n1CC(=O)N/N=C/c1ccc(Cl)cc1")
"med"
>>> category("CCOc1ccc(/C=N/NC(=O)Cn2c([N+](=O)[O-])cnc2C)cc1")
"lo"

**Q:** Class for CC(=O)N1N=C(Cn2c([N+](=O)[O-])cnc2C)OC1c1ccc(C)cc1 (centres undefined) ?
**A:** lo

**Q:** Please classify: CCc1ccc(C2OC(Cn3c([N+](=O)[O-])cnc3C)=NN2C(C)=O)cc1 (centres undefined)
**A:** lo

**Q:** Classify this compound: COc1ccc(C2OC(Cn3c([N+](=O)[O-])cnc3C)=NN2C(C)=O)cc1 (centres undefined)
**A:** lo

**Q:** Which band does Cc1ncc([N+](=O)[O-])n1CC(=O)N/N=C/c1ccccc1Cl fall in?
**A:** med

**Q:** Input COc1ccc(OC)c(/C=N/NC(=O)Cn2c([N+](=O)[O-])cnc2C)c1 ; output its category
**A:** lo

**Q:** # bin label for Cc1ccc(C)c(/C=N/NC(=O)Cn2c([N+](=O)[O-])cnc2C)c1
**A:** lo

**Q:** Which class holds COc1cc(/C=N/NC(=O)Cn2c([N+](=O)[O-])cnc2C)cc(OC)c1OC ?
**A:** hi

**Q:** # classify by IC50 band: Cc1ccc(/C=N/NC(=O)Cn2c([N+](=O)[O-])cnc2C)cc1
**A:** lo

**Q:** Into which bin does this compound go? COc1ccc(OC)c(C2OC(Cn3c([N+](=O)[O-])cnc3C)=NN2C(C)=O)c1 (centres undefined)
**A:** hi

**Q:** Categorize the following entry: COc1cc(C2OC(Cn3c([N+](=O)[O-])cnc3C)=NN2C(C)=O)cc(OC)c1OC (centres undefined)
**A:** hi

**Q:** Which category does the recorded IC50 put CC(=O)N1N=C(Cn2c([N+](=O)[O-])cnc2C)OC1c1ccc(Cl)cc1 (centres undefined) in?
**A:** hi

**Q:** Field: class (IC50) — entry: CC(=O)N1N=C(Cn2c([N+](=O)[O-])cnc2C)OC1c1ccccc1 (centres undefined)
**A:** hi

**Q:** Category of Cc1ncc([N+](=O)[O-])n1CC(=O)N/N=C/c1cccc(Cl)c1 :
**A:** med
